Target: Gal4 DNA binding domain fused to the LBD of LXRβ in HEK293 cells (Homo sapiens (Human))
Experiment: cell-based
So I've got a bunch of compounds here, and I need their log10 EC50 values.
Remember, log10 of EC50, in nM.

Give me log10 EC50 for each of these compounds, listed below.
1. CC(C)(O)c1cnc(N2CCN(c3ccc(F)c(S(C)(=O)=O)c3)CC2C(C)(C)C)nc1C(F)(F)F (stereo not shown)
2. CC(C)[C@H]1CN(c2cccc(S(C)(=O)=O)c2)CCN1C[C@H]1CC[C@H](C(F)(F)F)OC1 (single isomer, unassigned)
3. CC(C)[C@@H]1CN(c2ccc(F)c(S(C)(=O)=O)c2)CCN1c1cncc(C(F)(F)F)n1

1. 2.11
2. 2.06
3. 2.13

State the recorded log10 EC50 for every item in the following list.
1. CC(C)[C@@H]1CN(c2ccc(F)c(S(C)(=O)=O)c2)CCN1c1nc2ncccc2s1
2. CC(C)[C@@H]1CN(c2ccc(F)c(S(C)(=O)=O)c2)CCN1c1ncc(CN)c(C(F)(F)F)n1

1: 2.46; 2: 3.48

----------
Molecular target: LXR β LBD protein (Homo sapiens (Human))
Test: biochemical
Format: biochemical
Conditions: agonist mode
Sequence (P55055 222-460): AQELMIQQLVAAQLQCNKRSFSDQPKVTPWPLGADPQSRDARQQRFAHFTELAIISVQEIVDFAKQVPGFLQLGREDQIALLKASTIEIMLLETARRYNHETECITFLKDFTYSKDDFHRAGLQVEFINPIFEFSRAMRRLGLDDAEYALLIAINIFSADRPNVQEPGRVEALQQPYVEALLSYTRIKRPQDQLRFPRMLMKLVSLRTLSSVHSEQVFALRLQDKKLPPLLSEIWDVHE
Tag: Condition met if measured FRET LXRβ efficacy is not below 70%, Condition not met if it is.

I'd appreciate it if you could say whether CS(=O)(=O)c1cccc(N2CCN(C[C@H]3CC[C@H](C(F)(F)F)CC3)[C@H](c3ccccc3)C2)c1 (single isomer, unassigned) has FRET LXRβ efficacy at least equal to 70%.
Condition met

Check this compound for FRET LXRβ efficacy at or above 70%: CC(C)[C@@H]1CN(c2cccc(S(C)(=O)=O)c2)CCN1C(=O)OC(C)(C)C
Condition met

Tell me whether FRET LXRβ efficacy is at least 70% here: CC(C)[C@H]1CC[C@H](CN2CCN(c3cccc(S(C)(=O)=O)c3)C[C@H]2c2ccccc2)CC1 (single isomer, unassigned)
Condition not met

Determine whether measured FRET LXRβ efficacy meets or exceeds 70% for NS(=O)(=O)c1cccc(N2CCN(C[C@H]3CC[C@@H](C(F)(F)F)CC3)[C@@H](c3ccccc3)C2)c1 (single isomer, unassigned)
Condition not met

# bool: FRET LXRβ efficacy of CS(=O)(=O)c1cccc(N2CCN(Cc3ccc(C(F)(F)F)o3)[C@H](c3ccccc3)C2)c1 >= 70%
Condition not met

----------
Field: Ki. Provide a value for each of the compounds that follow.
Biological target: LXR β LBD protein (Homo sapiens (Human))
Assay: biochemical
Format: binding
Conditions: read-out: LXRβ Binding Ki
Sequence (P55055 222-460 limits assumed): as the sequence (P55055 222-460) above
Give bare numbers, in µM.

compound: CC(C)[C@@H]1CN(c2ccc(CO)c(S(C)(=O)=O)c2)CCN1c1nc(C(F)(F)F)c(C(C)(C)O)o1 [26-2]
experimental target: LXR β LBD protein (Homo sapiens (Human))
Ki / µM: 0.072

Below are some compounds; for each one, tell me its Ki.
1. CC(C)[C@H]1CN(c2ccc(CO)c(S(C)(=O)=O)c2)CCN1Cc1ccc(C(F)(F)F)o1 [47-5]
2. Cc1cc(C(F)(F)F)nc(N2CCN(c3ccc(F)c(S(C)(=O)=O)c3)C[C@H]2C(C)C)n1 [7-18]
3. CC(C)[C@@H]1CN(c2ccc(C#N)c(S(C)(=O)=O)c2)CCN1c1ncc([C@H](C)O)c(C(F)(F)F)n1 (single isomer, unassigned) [12-5]
4. CS(=O)(=O)c1cc(N2CCN(C[C@H]3CC[C@@H](C(F)(F)F)CC3)[C@@H](c3ccccc3Cl)C2)ccc1C(N)=O (single isomer, unassigned) [Cpd No 4-8]
5. CC(C)[C@@H]1CN(c2ccc(CO)c(S(C)(=O)=O)c2)CCN1c1nc(C(F)(F)F)c(CO)s1 [11-17]
6. CO[C@H]1CC[C@@H](CN2CCN(c3ccc(CO)c(S(C)(=O)=O)c3)C[C@@H]2C(C)C)CC1 (single isomer, unassigned) [Cpd No 51-7]

1. 0.109
2. 0.009
3. 0.08
4. 0.08
5. 0.053
6. 0.051

----------
For each of the compounds below, state its EC50.
Target: LXR β LBD protein (Homo sapiens (Human))
Experiment: biochemical
Assay type: biochemical
Give bare numbers, in nM.

compound: CS(=O)(=O)c1cccc(N2CCN(C[C@@H]3CCN(CC(F)(F)F)C3)[C@H](c3ccccc3)C2)c1 (single isomer, unassigned) [48-62]
recorded number: 2100

Continue with the compound presented below.
Given the compound CS(=O)(=O)c1cccc(N2CCN(C[C@H]3CCN(CC(F)(F)F)C3)[C@H](c3ccccc3)C2)c1 (single isomer, unassigned) [48-60] , what is its reported EC50?
1030

----------
Exercise: state measured EC50 for each of the compounds provided.
Target: Gal4 DNA binding domain fused to the LBD of LXRβ in HEK293 cells (Homo sapiens (Human))
Test: cell-based
Give bare numbers, in µM.

compound: Cc1noc(-c2ccc(N3CCN(c4ncc(CO)c(C(F)(F)F)n4)[C@H](C(C)C)C3)cc2S(C)(=O)=O)n1
experimental target: Gal4 DNA binding domain fused to the LBD of LXRβ in HEK293 cells (Homo sapiens (Human))
EC50 / µM: 2.25
//
compound: CC(C)[C@@H]1CN(c2ccc(F)c(S(C)(=O)=O)c2)CCN1c1nc2c(F)cccc2s1
experimental target: Gal4 DNA binding domain fused to the LBD of LXRβ in HEK293 cells (Homo sapiens (Human))
EC50 / µM: 0.077

Please look at the following compound next.
Record request: EC50 value, item CC(C)[C@H]1CN(c2cccc(S(C)(=O)=O)c2)CCN1CC1CCC(C(F)(F)F)N(C)C1 (stereo partly shown)
0.046

----------
Target: Gal4 DNA binding domain fused to the LBD of LXRα in HEK293 cells (Homo sapiens (Human), UniProt Q13133)
Experiment: LXR luciferase transcriptional reporter gene assay, agonist mode, LXRα
Format: cell-based
Conditions: read-out: Cell LXRα EC50
pEC50: −log10 of the molar value.
# label = satisfied if pEC50 >= 6 else not satisfied

Known results for compounds:
compound: C[C@](O)(c1ccc(CN2CCN(c3cccc(S(C)(=O)=O)c3)C[C@@H]2c2ccccc2)cc1)C(F)(F)F (single isomer, unassigned)
assigned class: not satisfied

compound: CC(C)[C@@H]1CN(c2ccc(F)c(S(C)(=O)=O)c2)CCN1c1ncc(C(F)(F)F)c(Cl)n1
assigned class: satisfied

compound: CC(C)[C@@H]1CN(c2ccc(C(N)=O)c(S(C)(=O)=O)c2)CCN1C(=O)OC(C)(C)C
assigned class: not satisfied

Switching to the query record.
Does the reported pEC50 for CC(C)c1ccc(CN2CCN(c3cccc(S(C)(=O)=O)c3)C[C@@H]2c2ccccc2)cc1 fall at or above the 6 mark?
not satisfied

----------
Molecular target: Gal4 DNA binding domain fused to the LBD of LXRβ in HEK293 cells (Homo sapiens (Human), UniProt P55055)
Experiment: cell-based
Format: cell-based
Settings: antagonist mode, 200 nM T0901317, HEK293 reporter gene assay
property name: Cell LXRβ efficacy

Examples from the recorded data:
compound: CS(=O)(=O)c1cccc(N2CCN(C[C@H]3C[C@@H]4[C@H](C3)C4(F)F)[C@@H](c3ccccc3)C2)c1
result: 85%

compound: CCCCN(C)C(=O)c1cnc(N2CCN(c3ccc(F)c(S(C)(=O)=O)c3)C[C@H]2C(C)C)nc1C(F)(F)F
result: 100 (89) %

compound: NS(=O)(=O)c1cccc(N2CCN(C[C@H]3CC[C@@H](C(F)(F)F)CC3)[C@@H](c3ccccc3)C2)c1 (single isomer, unassigned)
result: 38%

compound: CC(C)[C@@H]1CN(c2cc(F)c(CO)c(S(C)(=O)=O)c2)CCN1c1ncc(C(N)=O)c(C(F)(F)F)n1
result: 182 (98) %

compound: CC(C)[C@@H]1CN(c2ccc(F)c(S(C)(=O)=O)c2)CCN1c1ncc(CN2CC(O)C2)c(C(F)(F)F)n1
result: 1438 (104) %

List reported Cell LXRβ efficacy for each of these compounds:
1. CS(=O)(=O)c1cc(N2CCN(C[C@H]3CC[C@@H](C(F)(F)F)CC3)[C@@H](c3ccc(F)cc3)C2)ccc1F
2. CC(C)[C@@H]1CN(c2cccc(S(C)(=O)=O)c2)CCN1C(=O)OC(C)(C)C
3. Cc1ccc(C2CC2)nc1N1CCN(c2cccc(S(C)(=O)=O)c2)C[C@H]1C(C)C

1. 52%
2. 1996 (45) %
3. 288 (88) %

----------
Record form. Attribute: Ki. Fill in for each entry.
Target: LXR α LBD protein (Homo sapiens (Human))
Sequence (Q13133 209-447): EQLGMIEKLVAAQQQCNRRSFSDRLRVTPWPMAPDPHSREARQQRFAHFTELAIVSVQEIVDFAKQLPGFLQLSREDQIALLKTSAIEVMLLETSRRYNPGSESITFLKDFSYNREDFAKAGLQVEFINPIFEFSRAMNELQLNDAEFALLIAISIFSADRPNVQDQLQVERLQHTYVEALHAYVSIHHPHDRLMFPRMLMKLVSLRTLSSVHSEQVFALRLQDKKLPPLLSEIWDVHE
Assay: LXR α radioligand binding assay (SPA, competition with [3H]TO901317)
Conditions: read-out: LXRα Binding Ki
One number for each entry, in nM.

// for each compound below, give its Ki
1. CS(=O)(=O)c1cccc(N2CCN(c3nccc(C(F)(F)F)n3)[C@H](c3ccc(F)cc3)C2)c1
2. CC(C)[C@H]1CN(c2ccc(CO)c(S(C)(=O)=O)c2)CCN1Cc1ccc(C(F)(F)F)o1

1: 454; 2: 1090

Observed Ki on LXR α LBD protein (Homo sapiens (Human)) for COCCN(C)Cc1cnc(N2CCN(c3ccc(F)c(S(C)(=O)=O)c3)C[C@H]2C(C)C)nc1C(F)(F)F , please.
948

Each recorded value in this set is attributed to patent US10144715B2.
